System: Staphylococcus aureus (MSSA)
Details: 24 h
Starred links: 1 amine or outer side, 2 acyl side, 3 side chain; linkers in the order of their positions; H or OH if unused. Positions of bridges follow the written chain, without caps; N, C: chain ends. Non-standard residues stand in square brackets, D forms with d. Residues, ends and D or L forms follow the SMILES beside them. ξ: configuration not given here. *: point of attachment. X37 = CC(NC(=O)[C@@H](N)CCCCN)C(N[*:1])C(=O)[*:2]; ξAbu(βξ-NH2) = CC(N[*:3])C(N[*:1])C(=O)[*:2]; Pentadecanoyl = CCCCCCCCCCCCCCC(=O)*; Bta = N[C@@H](Cc1csc2ccccc12)C(=O)O; ξAsp(βξ-Me) = CC(C(=O)O)C(N)C(=O)O; X1 = O=C(Cc1ccc(N[*:1])cc1)[*:2]; Myristoyl = CCCCCCCCCCCCCC(=O)*; ξAbu(3ξ-NH2) = CC(N)C(N)C(=O)O; Decanoyl = CCCCCCCCCC(=O)*; X19 = CCCCCCCCCCS(=O)(=O)*; 3Abz = Nc1cccc(C(=O)O)c1; Pip = O=C(O)[CH]1CCCCN1; ξD = NC(CC(=O)O)C(=O)O; ξPip = O=C(O)C1CCCCN1; ξV = CC(C)C(N)C(=O)O; ξP = O=C(O)C1CCCN1
parameter: MIC (µg/mL)
Express it in µg/mL; write the number only.

{"compound": "CCCCCCCCCC(=O)Nc1cccc(C(=O)NC(CC(=O)O)C(=O)NC2C(=O)N3CCCCC3C(=O)NC(C(C)C(=O)O)C(=O)NC(CC(=O)O)C(=O)NCC(=O)NC(CC(=O)O)C(=O)NCC(=O)NC(C(C)N)C(=O)NC(C(C)C)C(=O)N3CCCC3C(=O)NC2C)c1 (stereo not drawn) [Compound 293, C10-(M-Aminobenzoyl)-Amphomycin] ({Decanoyl-3Abz}-D[ξAbu(βξ-NH2)][Pip][ξAsp(βξ-Me)]DGDG[ξAbu(3ξ-NH2)]VP; lactam 2-C; configuration not given here)", "unit annotation": "µg/mL", "MIC": 2}
{"compound": "CCCCCCCCCC(=O)N[C@@H](Cc1csc2ccccc12)C(=O)NC(CC(=O)O)C(=O)NC1C(=O)N2CCCCC2C(=O)NC(C(C)C(=O)O)C(=O)NC(CC(=O)O)C(=O)NCC(=O)NC(CC(=O)O)C(=O)NCC(=O)NC(C(C)N)C(=O)NC(C(C)C)C(=O)N2CCCC2C(=O)NC1C (stereo partly drawn) [Compound 118, C10-(L-BBTA)-Amphomycin] (Decanoyl-[Bta][ξD][ξAbu(βξ-NH2)][ξPip][ξAsp(βξ-Me)][ξD]G[ξD]G[ξAbu(3ξ-NH2)][ξV][ξP]; lactam 3-C)", "unit annotation": "µg/mL", "MIC": 2}
{"compound": "CCCCCCCCCCCCCCC(=O)Nc1ccc(CC(=O)NC(CC(=O)O)C(=O)NC2C(=O)N3CCCCC3C(=O)NC(C(C)C(=O)O)C(=O)NC(CC(=O)O)C(=O)NCC(=O)NC(CC(=O)O)C(=O)NCC(=O)NC(C(C)N)C(=O)NC(C(C)C)C(=O)N3CCCC3C(=O)NC2C)cc1 (stereo not drawn) [Compound 312, C15-(p-Apa)-Amphomycin] (Pentadecanoyl-[X1]D[ξAbu(βξ-NH2)][Pip][ξAsp(βξ-Me)]DGDG[ξAbu(3ξ-NH2)]VP; lactam 3-C; configuration not given here)", "unit annotation": "µg/mL", "MIC": 1}
{"compound": "CCCCCCCCCC(=O)Nc1ccc(C(=O)NC(CC(=O)O)C(=O)NC2C(=O)N3CCCCC3C(=O)NC(C(C)C(=O)O)C(=O)NC(CC(=O)O)C(=O)NCC(=O)NC(CC(=O)O)C(=O)NCC(=O)NC(C(C)N)C(=O)NC(C(C)C)C(=O)N3CCCC3C(=O)NC2C)cc1 (centres unmarked)", "unit annotation": "µg/mL", "MIC": 2}
{"compound": "CCCCCCCCCCCCNC(=O)NC(CC(=O)O)C(=O)NC1C(=O)N2CCCCC2C(=O)NC(C(C)C(=O)O)C(=O)NC(CC(=O)O)C(=O)NCC(=O)NC(CC(=O)O)C(=O)NCC(=O)NC(C(C)NC(=O)CNC)C(=O)NC(C(C)C)C(=O)N2CCCC2C(=O)NC1C (centres unmarked)", "unit annotation": "µg/mL", "MIC": 0.5}

## Task Tell me reported MIC for CCCCCCCCCCCCCC(=O)NCC(=O)NC(CC(=O)O)C(=O)NC1C(=O)N2CCCCC2C(=O)NC(C(C)C(=O)O)C(=O)NC(CC(=O)O)C(=O)NCC(=O)NC(CC(=O)O)C(=O)NCC(=O)NC(C(C)N)C(=O)NC(C(C)C)C(=O)N2CCCC2C(=O)NC1C (stereo not drawn) [Compound 105, C14-Gly-Amphomycin] (Myristoyl-GD[ξAbu(βξ-NH2)][Pip][ξAsp(βξ-Me)]DGDG[ξAbu(3ξ-NH2)]VP; lactam 3-C; configuration not given here) , tested with Staphylococcus aureus (MSSA).
## Result 0.5

## Task Lookup: MIC / Staphylococcus aureus (MSSA) / CCCCCCCCCCS(=O)(=O)NCC(=O)NC(CC(=O)O)C(=O)NC1C(=O)N2CCCCC2C(=O)NC(C(C)C(=O)O)C(=O)NC(CC(=O)O)C(=O)NCC(=O)NC(CC(=O)O)C(=O)NCC(=O)NC(C(C)NC(=O)[C@@H](N)CCCCN)C(=O)NC(C(C)C)C(=O)N2CCCC2C(=O)NC1C (stereo partly drawn) [Compound 101, CH3—(CH2)9—SO2-Gly-Amphomycin-9-Lys] (X19-G[ξD][ξAbu(βξ-NH2)][ξPip][ξAsp(βξ-Me)][ξD]G[ξD]G[X37][ξV][ξP]; lactam 3-C)
## Result 32

## Task Give the reported MIC for CCCCCCCCCCCCCCC(=O)NC(CC(=O)O)C(=O)NC1C(=O)N2CCCCC2C(=O)NC(C(C)C(=O)O)C(=O)NC(CC(=O)O)C(=O)NCC(=O)NC(CC(=O)O)C(=O)NCC(=O)NC(C(C)NC(=O)CCCNC(=O)[C@@H](N)CCCCN)C(=O)NC(C(C)C)C(=O)N2CCCC2C(=O)NC1C (some centres unmarked) (system: Staphylococcus aureus (MSSA)).
## Result 1

* * *

# Lookup of reported MIC, media condition H keyed by entry
Test system: Staphylococcus aureus SAU0065 (MRSA)
Test: Broad spectrum MIC, Table 17/18 column H
Format: cell-based
Conditions: condition H of Table 17, in µg/mL
Reply: number alone, nothing else.

{"compound": "CCCCCCCCCCCCCCC(=O)NC(CC(=O)O)C(=O)NC1C(=O)N2CCCCC2C(=O)NC(C(C)C(=O)O)C(=O)NC(CC(=O)O)C(=O)NCC(=O)NC(CC(=O)O)C(=O)NCC(=O)NC(C(C)N)C(=O)NC(C(C)C)C(=O)N2CCCC2C(=O)NC1C (stereo not drawn) [Compound 2, C15-Amphomycin]", "study system": "Staphylococcus aureus SAU0065 (MRSA)", "MIC, media condition H": 4}

## Task Look at this compound and give its reported MIC, media condition H. CCCCCCCCCCCCNC(=O)NC(CC(=O)O)C(=O)NC1C(=O)N2CCCCC2C(=O)NC(C(C)C(=O)O)C(=O)NC(CC(=O)O)C(=O)NCC(=O)NC(CC(=O)O)C(=O)NCC(=O)NC(C(C)N)C(=O)NC(C(C)C)C(=O)N2CCCC2C(=O)NC1C (stereo not drawn) [Compound 251, CH3—(CH2)11—NH—C(═O)-Amphomycin]
## Result 2

## Task Form field: reported MIC, media condition H of CCCCCCCCCCCCNC(=O)NC(CC(=O)O)C(=O)NC1C(=O)N2CCCCC2C(=O)NC(C(C)C(=O)O)C(=O)NC(CC(=O)O)C(=O)NCC(=O)NC(CC(=O)O)C(=O)NCC(=O)NC(C(C)NC(=O)CCN)C(=O)NC(C(C)C)C(=O)N2CCCC2C(=O)NC1C (stereo not drawn) [Compound 97]
## Result 1

* * *

Readings of MIC for the listed compounds
System: Staphylococcus aureus (MSSA)
Conditions: 24 h
Starred links: 1 amine or outer side, 2 acyl side, 3 side chain; linkers in the order of their positions; H or OH if unused. Positions of bridges follow the written chain, without caps; N, C: chain ends. Non-standard residues stand in square brackets, D forms with d. Residues, ends and D or L forms follow the SMILES beside them. ξ: configuration not given here. *: point of attachment. ξAbu(βξ-NH2) = CC(N[*:3])C(N[*:1])C(=O)[*:2]; ξAsp(βξ-Me) = CC(C(=O)O)C(N)C(=O)O; X1 = O=C(Cc1ccc(N[*:1])cc1)[*:2]; ξAbu(3ξ-NH2) = CC(N)C(N)C(=O)O; Octanoyl = CCCCCCCC(=O)*; Pip = O=C(O)[CH]1CCCCN1
Give a bare numeral; the unit µg/mL is implied.

{"compound": "CCCCCCCCCCCCCCC(=O)NC(CC(=O)O)C(=O)NC1C(=O)N2CCCCC2C(=O)NC(C(C)C(=O)O)C(=O)NC(CC(=O)O)C(=O)NCC(=O)NC(CC(=O)O)C(=O)NCC(=O)NC(C(C)NC(=O)C(C)(C)N)C(=O)NC(C(C)C)C(=O)N2CCCC2C(=O)NC1C (stereo not drawn)", "study system": "Staphylococcus aureus (MSSA)", "unit annotation": "µg/mL", "MIC": 8}

## Task Record request: MIC value, item CCCCCCCCCCCCCCC(=O)NC(CC(=O)O)C(=O)NC1C(=O)N2CCCCC2C(=O)NC(C(C)C(=O)O)C(=O)NC(CC(=O)O)C(=O)NCC(=O)NC(CC(=O)O)C(=O)NCC(=O)NC(C(C)NC(=O)[C@@H](C)N)C(=O)NC(C(C)C)C(=O)N2CCCC2C(=O)NC1C (stereo partly drawn)
## Result 4

## Task Which MIC is listed for CCCCCCCC(=O)Nc1ccc(CC(=O)NC(CC(=O)O)C(=O)NC2C(=O)N3CCCCC3C(=O)NC(C(C)C(=O)O)C(=O)NC(CC(=O)O)C(=O)NCC(=O)NC(CC(=O)O)C(=O)NCC(=O)NC(C(C)N)C(=O)NC(C(C)C)C(=O)N3CCCC3C(=O)NC2C)cc1 (stereo not drawn) [Compound 104, C8-(p-Apa)-Amphomycin] (Octanoyl-[X1]D[ξAbu(βξ-NH2)][Pip][ξAsp(βξ-Me)]DGDG[ξAbu(3ξ-NH2)]VP; lactam 3-C; configuration not given here) ?
## Result 2
